assay: SGF digest of 168 nutritive polypeptide library, intact protein by LC-MS/MS; type: in vitro ADME; settings: 168 nutritive polypeptide library SGF digest, LC-MS/MS spectral counts

MOLECULE	RESULT_UNITS	% Intact Protein at 10 min
SEQID-00509: protein of the 168 nutritive polypeptide library (protein, listed as Gadus morhua) MSDTEDVDQVEDEKPKFKPSAPKIPDGEKVDFDDIQKKRQNKDLSELQGLIDAHFEGRKKEEEELIALKERIEKRRAERAEQQRIRSEKDKERQARREEERLKREEADAKKKMEEDAKKKSALSNMGSNYSSHLQKADQKRGGGKKETEREKKKKILAARRKGLNIDHLNEDKLKDKINELHEWMSTLESEKFDHMERLNRQKYEVTTLRKRVEELSKFSKKGKTVRRK	%	36.4
